Quick list: growth inhibition per entry.
Test: OD615 S. cerevisiae growth inhibition, permissive medium, pilot counter-assay, permissive growth control for S. cerevisiae lifespan shortening project (AID 705)
Details: OD615, 24 h, at 10 µM, hits give high values
value_type: growth inhibition (%)

>>> data_value("COc1ccc(NC(=O)NCCCN2CCc3ccccc3C2)cc1")
3.62
>>> data_value("CCOc1ccc(C(=O)Nc2cc(=O)n(C)c(=O)n2C)cc1")
-29.3
>>> data_value("O=c1cc(CSc2nnc(-c3ccccc3)o2)c2ccccc2[nH]1")
-4.87
>>> data_value("Cc1ccc(C2c3c(oc4cc(C)c(C)cc4c3=O)C(=O)N2CCCN2CCOCC2)cc1 (stereo unspecified)")
-5.16
>>> data_value("CC(=O)c1ccc2c3c(ccc(O)c13)CC2")
-1.21
>>> data_value("Cc1ccnc(SCC(=O)O)n1")
-0.18
>>> data_value("COC(=O)c1cn(NC(=O)c2ccc3c(c2)OCO3)c(=O)c2ccccc12")
-4.02
>>> data_value("CCOC(=O)CSc1nnc(Cc2cc(=O)[nH]c(=O)[nH]2)n1-c1ccc(Cl)cc1")
-16.1
>>> data_value("CCN1C(=O)NC2C1N(S(C)(=O)=O)CCN2S(C)(=O)=O (stereo unspecified)")
-1.72
>>> data_value("CC(CCc1ccccc1)NC(=O)c1nnc(Cc2ccc(F)cc2)o1 (stereo unspecified)")
-3.78
>>> data_value("N#CC1=C(SCC(N)=O)NC(=O)CC1c1ccccc1Cl (stereo unspecified)")
-3.39

Values were extracted from PubChem BioAssay.
